Data origin: ChEMBL document CHEMBL4270612

- Test system: Haemophilus influenzae
- test-name: Antibacterial activity against Haemophilus influenzae ATCC 49247 after 24 hrs by broth microdilution method
- Assay type: functional
- experimental-setup: ATCC 49247, 24 h
Exercise: state measured MIC for each of the molecules provided.
One number for each entry, in µg/mL.

Consider the molecule "CC(C)(O/N=C(\C(=O)N[C@@H]1C(=O)N2C(C(=O)[O-])=C(C[n+]3ccccc3)CS[C@H]12)c1csc(N)n1)C(=O)O" . State its measured MIC.
0.25

Consider the molecule "CC(=O)NC[C@H]1CN(c2ccc(N3CCOCC3)c(F)c2)C(=O)O1" . State its measured MIC.
4

With those in mind, consider the next molecule.
Consider the molecule "CCNC(=O)Nc1cc(-c2nc(C(F)(F)F)cs2)c(-c2cc3ncccc3nc2N2C3CCC2CN(C)C3)cn1" . State its measured MIC.
0.25

---

- System: Acinetobacter baumannii
- test-name: Antibacterial activity against Acinetobacter baumannii ARC2728 after 24 hrs by broth microdilution method
- Format: functional
- experimental-setup: ARC2728, 24 h
Exercise: state measured MIC for each of the molecules provided.
One number for each entry, in µg/mL.

Record excerpt, results attached:
Consider the molecule "CCNC(=O)Nc1cc(-c2nc(C(F)(F)F)cs2)c(-c2cc3ncccc3nc2N2C3CCC2CN(C)C3)cn1" . State its measured MIC.
1

Consider the molecule "CCNC(=O)Nc1cc(-c2nc(C3CC3)cs2)c(-c2cc(-c3n[nH]c(=O)o3)cnc2N2C3CCC2CN(C)C3)cn1" . State its measured MIC.
1

Consider the molecule "C[C@@H](O)[C@H]1C(=O)N2C(C(=O)O)=C(S[C@@H]3CN[C@H](C(=O)N(C)C)C3)[C@H](C)[C@H]12" . State its measured MIC.
0.25

---
Consider the molecule "CCNC(=O)Nc1cc(-c2nc(C(F)(F)F)cs2)c(-c2cc(-c3n[nH]c(=O)o3)cnc2N2C3CCC2CN(C)C3)cn1" . State its measured MIC.
1

---

- test-name: Dissociation constant, basic pKa of compound by pH metric method
- Assay type: physicochemical
Exercise: state measured pKa for each of the molecules provided.
Answers are plain numbers.

Consider the molecule "CCNC(=O)Nc1cc(-c2nc(C(F)(F)F)cs2)c(-c2cc(-c3n[nH]c(=O)o3)cnc2N2C3CCC2CN(C)C3)cn1" . State its measured pKa.
7.8

Consider the molecule "CCNC(=O)Nc1cc(-c2nc(C(F)(F)F)cs2)c(-c2cc(C(=O)O)ccc2N2C3CCC2CN(C)C3)cn1" . State its measured pKa.
8.2

Consider the molecule "CCNC(=O)Nc1cc(-c2nc(C(F)(F)F)cs2)c(-c2cc(C(=O)NS(C)(=O)=O)cnc2N2C3CCC2CN(C)C3)cn1" . State its measured pKa.
7.6

Your task in this section: give pKa for each listed record.
1. CCNC(=O)Nc1cc(-c2nc(C3CC3)cs2)c(-c2cc(-c3n[nH]c(=O)o3)cnc2N2C3CCC2CN(C)C3)cn1
2. CCNC(=O)Nc1cc(-c2nc(C(F)(F)F)cs2)c(-c2cc(C(=O)O)cnc2N2C3CCC2CN(C)C3)cn1
3. CCNC(=O)Nc1cc(-c2nc(C(F)(F)F)cs2)c(-c2cc(-c3n[nH]c(=O)o3)cnc2N2[C@@H]3CC[C@H]2C[C@@H](N)C3)cn1
4. CCNC(=O)Nc1cc(-c2nc(C(F)(F)F)cs2)c(-c2cc(-c3n[nH]c(=O)o3)cnc2N2CCC(N)CC2)cn1
5. CCNC(=O)Nc1cc(-c2nc(C(F)(F)F)cs2)c(-c2cc(-c3nnn[nH]3)cnc2N2C3CCC2CN(C)C3)cn1

1. 7.9
2. 7.4
3. 9.5
4. 9.5
5. 7.8
